// provenance: patent US20210122739A1

Exercise: state measured CL/F for each of the compounds provided.
Assay: PK protocol: pharmacokinetic parameters in male Sprague Dawley rats
Format: in vivo
Conditions: plasma, oral administration, rat, dose per compound in Dose column (3 or 5 mg/kg)
One number for each entry, in mL/min/kg.

{"columns": ["COMPOUND", "CL/F [mL/min/kg]"],
 "data": [
  ["CN(C)C(=O)c1cc(S(=O)(=O)NC(=O)Nc2c3c(cc4c2CCC4)CCC3)nn1C [Example 69]", 49.5],
  ["COCCN(C)C(=O)c1cc(S(=O)(=O)NC(=O)Nc2c3c(cc4c2CCC4)CCC3)nn1C [Example 27]", 21.5]
]}

Switching to the query record.
Record CC(C)c1cc(F)cc(C(C)C)c1NC(=O)NS(=O)(=O)c1cc(C(=O)N(C)C)n(C)n1 [Example 60] , field CL/F: 110
